- assayTarget: Rac GTPase-activating protein 1 (Homo sapiens) (UniProt Q9H0H5)
- Sequence (Q9H0H5 whole entry, looked up): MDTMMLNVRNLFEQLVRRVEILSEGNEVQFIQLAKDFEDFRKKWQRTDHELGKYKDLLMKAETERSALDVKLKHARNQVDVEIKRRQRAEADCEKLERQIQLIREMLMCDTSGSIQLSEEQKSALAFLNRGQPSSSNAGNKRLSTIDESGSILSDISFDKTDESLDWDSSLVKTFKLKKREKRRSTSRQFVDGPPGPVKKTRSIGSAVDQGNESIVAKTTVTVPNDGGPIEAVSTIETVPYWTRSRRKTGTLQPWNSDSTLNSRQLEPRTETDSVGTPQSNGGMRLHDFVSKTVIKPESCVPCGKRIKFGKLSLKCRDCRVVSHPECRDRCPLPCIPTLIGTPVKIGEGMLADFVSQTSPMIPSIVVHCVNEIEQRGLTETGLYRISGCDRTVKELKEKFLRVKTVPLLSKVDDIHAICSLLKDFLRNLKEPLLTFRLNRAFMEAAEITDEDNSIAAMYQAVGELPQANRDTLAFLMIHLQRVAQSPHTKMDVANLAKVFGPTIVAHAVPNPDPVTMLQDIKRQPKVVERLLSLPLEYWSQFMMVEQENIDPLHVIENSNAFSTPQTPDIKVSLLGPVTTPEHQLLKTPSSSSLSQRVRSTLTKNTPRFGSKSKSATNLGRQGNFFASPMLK
- protocolText: blockers of MgcRacGAP-driven Rac1 GTP hydrolysis – biochemical, ADP Hunter fluorescence, primary and confirmatory, confirmation (AID 624330);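 also: fluorescence reports GDP produced by GAP-driven GTP hydrolysis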
- testContext: MgcRacGAP-stimulated Rac1 GTP hydrolysis, at 30 µM, hits give high values, GST-tagged Rac1 F28L mutant substrate
About 2,100 (0.62%) of roughly 340,000 compounds were called active. The list is a sample of the results. Measured potencies and affinities stand elsewhere.
reportedEndpoint: inhibition (%)

[[record]]
molecule = "CCN(CC)c1ccc(NC(=O)COC(=O)c2cccs2)cc1"
readoutvalue = 21.8

[[record]]
molecule = "O=C(COC(=O)CNC(=O)c1cccs1)Nc1ccccc1C(F)(F)F"
readoutvalue = 8.33

[[record]]
molecule = "CCOc1ccc(NC(=O)COC(=O)Cc2ccsc2)cc1"
readoutvalue = 2.81

[[record]]
molecule = "CCc1c(C)nc(SCC(=O)N2CCN(c3ccccc3)CC2)[nH]c1=O"
readoutvalue = 13

[[record]]
molecule = "CCOC(=O)c1c(C)oc2c(CN3CCN(C)CC3)c(Br)c(OC)c(O)c12"
readoutvalue = 14.1

[[record]]
molecule = "CCCOC(=O)c1ccc(NC(=O)CN(C)Cc2cccs2)cc1"
readoutvalue = 10.3

[[record]]
molecule = "CC1CN(C(=O)COC(=O)c2ccc3ccccc3c2)CC(C)O1 (stereo unspecified)"
readoutvalue = 8.18

[[record]]
molecule = "COc1ccc([N+](=O)[O-])cc1NS(=O)(=O)c1cc(C(=O)O)ccc1OC"
readoutvalue = -0.88

[[record]]
molecule = "COc1ccc(NC(=O)COC(=O)CNC(=O)c2cccs2)cc1Cl"
readoutvalue = 2.23

[[record]]
molecule = "CN(CC(=O)Nc1cc(Cl)cc(Cl)c1)Cc1cccs1"
readoutvalue = 3.5

[[record]]
molecule = "O=[N+]([O-])c1ccc(NN=C(C2CC2)C2CC2)c([N+](=O)[O-])c1"
readoutvalue = 9.77


---

- assayTarget: Rac GTPase-activating protein 1 (Homo sapiens)
- protocolText: blockers of MgcRacGAP-driven Rac1 GTP hydrolysis – biochemical, ADP Hunter fluorescence, primary and confirmatory, confirmation (AID 624330);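 also: fluorescence reports GDP produced by GAP-driven GTP hydrolysis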
- testContext: MgcRacGAP-stimulated Rac1 GTP hydrolysis, at 30 µM, hits give high values, GST-tagged Rac1 F28L mutant substrate
Out of some 340,000 compounds screened, about 2,100 (0.62%) were called active. The list is a sample of the results. Entries with a potency or affinity are not part of this list.
Listed here are molecules together with their documented inhibition.
reportedEndpoint: inhibition (%)

[[record]]
molecule = "C=CCc1cc(OC)ccc1OCCON1C(=O)CCC1=O"
readoutvalue = 8.6

[[record]]
molecule = "CCOC(=O)COc1nc(OC)nc(N2CCOCC2)n1"
readoutvalue = 13

[[record]]
molecule = "CCc1noc(C)c1C(=O)NNC(=O)c1ccc(Br)cc1"
readoutvalue = 5.66

[[record]]
molecule = "O=CN(/C=C1\\Sc2ccccc2C1=O)Cc1ccccc1"
readoutvalue = 10

[[record]]
molecule = "CCN(CC)CCNC(=O)c1ccc(NC(=O)c2ccc3c(c2)CCC3)cc1"
readoutvalue = 3.69

[[record]]
molecule = "Cc1ccc(NC(=O)CCC(=O)N/N=C/c2ccccc2O)cc1"
readoutvalue = -6.53

[[record]]
molecule = "CCc1ccc(CN(C)C(=O)c2cc(COc3ccc(OC)cc3Cl)on2)nc1"
readoutvalue = 10.7

[[record]]
molecule = "O=C1/C(=C/c2ccc(Br)cc2)Oc2cc(O)ccc21"
readoutvalue = 7.31

[[record]]
molecule = "CCN(CC(=O)Nc1ccc(NC(C)=O)cc1)CC(=O)Nc1cc(C)on1"
readoutvalue = 5.22

[[record]]
molecule = "CCCCN(C)CCC(=O)Nc1ccc2c(c1)CCC2"
readoutvalue = 6

[[record]]
molecule = "Nc1cc2c(cc1Cl)N(Cc1ccccc1)C(=O)CO2"
readoutvalue = 4.01

[[record]]
molecule = "COc1ccc(N2CCN(C(=O)c3cc(=O)[nH]c4ccccc34)CC2)cc1"
readoutvalue = 18.3

[[record]]
molecule = "CCCNC(=S)Nc1cc2oc3ccccc3c2cc1OC"
readoutvalue = 7.43

[[record]]
molecule = "Cc1onc(-c2ccccc2Cl)c1C(=O)NNC(=O)c1nn(C)cc1Cl"
readoutvalue = 1.82

[[record]]
molecule = "COc1cccc(-c2cc(C(=O)Nc3cccnc3)no2)c1"
readoutvalue = 3.22

[[record]]
molecule = "O=C1/C(=C/c2cccc(F)c2)Oc2cc(O)ccc21"
readoutvalue = 6.11

[[record]]
molecule = "N#Cc1cccc(NC(=O)CCN2C(=O)C3CCCCC3C2=O)c1 (stereo not drawn)"
readoutvalue = -0.53

[[record]]
molecule = "COc1ccc(NC(=O)Nc2ccc3c(c2)C(=O)N([C@H](C)CO)C[C@H](C)[C@@H](CN(C)S(C)(=O)=O)O3)cc1"
readoutvalue = 11.1

[[record]]
molecule = "Cc1cccc(NC(=O)CCC(=O)N/N=C/c2cc([N+](=O)[O-])ccc2O)c1"
readoutvalue = 5.13

[[record]]
molecule = "COc1ccccc1CC(=O)Nc1cc2oc3ccccc3c2cc1OC"
readoutvalue = 1.63

[[record]]
molecule = "COC(=O)CNC(=O)c1nn(-c2cccc(OC)c2)c(=O)c2ccccc12"
readoutvalue = 7.12

[[record]]
molecule = "COCCN(C(=O)c1cccc(-n2cnnn2)c1)c1c(N)n(CC(C)C)c(=O)[nH]c1=O"
readoutvalue = 5.99

[[record]]
molecule = "C/C(=N/NC(=O)C1CC1(c1ccccc1)c1ccccc1)c1ccco1 (stereo not drawn)"
readoutvalue = 10.7

